- ASSAY METHOD TEXT: clinical
- APPLIED CONDITIONS: male, human, in vivo, AUC∞, Treatment-2 (day 9): colchicine 0.6 mg + propafenone 225 mg after twice daily days 4-8, fasted; mean
QUANTITY MEASURED: AUC(0-inf) (ng·h/mL)
Supply the numeric figure in ng·h/mL, leaving out any unit text.

Item COc1cc2c(c(OC)c1OC)-c1ccc(OC)c(=O)cc1[C@@H](NC(C)=O)CC2 [Colchicine] : provide AUC(0-inf) 18.9

====

- ASSAY METHOD TEXT: clinical
- APPLIED CONDITIONS: human, plasma, oral, 0.6 mg, AUC∞, Treatment-1 (day 1): colchicine 0.6 mg alone, fasted; cimetidine study; mean
QUANTITY MEASURED: AUC(0-inf) (ng·h/mL)
Expressed in ng·h/mL, but write only the number.

# return recorded AUC(0-inf) for input COc1cc2c(c(OC)c1OC)-c1ccc(OC)c(=O)cc1[C@@H](NC(C)=O)CC2 [Colchicine] 24
